biological target: T1, rhNav1.7α + β1-β2-β3 (rhesus monkey); test: binding FACS, CHO FlpIn
T1 construct: also called rhNav1.7-beta1-beta2-beta3; rhNav1.7-β1-β2-β3
measured_metric: Bmax (%)
Note: unit % is implicit; provide only the numeric part.

Look over these answered cases.
binder	Bmax / %
F010302356 (VHH) VHH: EVQLVESGGGVVQPGGSLRLSCAASHRAFIRDLFTGWYRRAPGKQRELVARIYESGNTNYADSVKGRFTISRDNAKKTVYLQMNSLRPEDTALYYCLFSGTISTGREYRSGDYWGQGTLVTVSS	81
F0103464B09 (parental)-FLAG-HIS6 (VHH, also called F010346B09) VHH: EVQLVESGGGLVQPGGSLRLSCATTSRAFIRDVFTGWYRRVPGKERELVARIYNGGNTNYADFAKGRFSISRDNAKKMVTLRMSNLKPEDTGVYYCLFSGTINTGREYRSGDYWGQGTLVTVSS	33
F010302354 (VHH) VHH: EVQLVESGGGVVQPGGSLRLSCAASHRAFIRDVFTGWYRRAPGKQRELVARIYESGNTQYADSVKGRFTISRDNAKKTVYLQMNSLRPEDTALYYCLFSGTISTGREYRSGDYWGQGTLVTVSS	96

Field: next binder
# Bmax of F010302338 (VHH) VHH: EVQLVESGGGVVQPGGSLRLSCAASHRAFIRDVFTGWYRRAPGKQRELVARIYESGNTQYADSAKGRFTISRDNAKKTVYLQMNSLRPEDTALYYCLFSGTISTGREYRSGDYWGQGTLVTVSS = 100

src = patent US20240002497A1
